Target: SARS-CoV-2 PLpro (nsp3 1564–1878) (Severe acute respiratory syndrome coronavirus 2)
Test: biochemical
Type: biochemical
Conditions: fluorescent-based assay; listed as PDK/Akt/Flt dual pathway inhibitor
OUTCOME_MEASURE: IC50 (µM)
Record the value in µM, omitting the unit from your answer.

Ask: Quick check: IC50 of O=C1c2ccccc2-c2nc3nnnn3nc21 [PDK1/Akt/Flt Dual Pathway Inhibitor] ?
Result: 0.26

---

Molecular target: SARS-CoV-2 PLpro (nsp3 1564–1878) (Severe acute respiratory syndrome coronavirus 2, UniProt P0DTD1)
Assay: biochemical
Type: biochemical
Conditions: screen, 1.25 µM compound; number after the slash is the control without compound
Classification field: Criterion met = slope value (of slope value/control) 1.25 µM at or over 400; Criterion not met = slope value (of slope value/control) 1.25 µM under 400.

Ask: # check: slope value (of slope value/control) 1.25 µM of CC1(C)CCC2=C(O1)c1ccccc1C(=O)C2=O [beta-Lapachone] is greater than or equal to 400
Result: Criterion met

---

Normalized activity Low (1.25µM) values for the compounds below.
Biological target: SARS-CoV-2 PLpro (nsp3 1564–1878) (Severe acute respiratory syndrome coronavirus 2)
Assay: biochemical
Type: biochemical
Conditions: screen, normalized to control without compound, Table S1
Form: value (number only, do not type unit).

compound=O=C1c2ccccc2-c2nc3nnnn3nc21 quantitative_result=0.111
compound=Cn1c(=O)c2[nH]c(-c3ccc(S(=O)(=O)O)cc3)nc2n(C)c1=O quantitative_result=0.9534
compound="CC[C@@H]1Cc2cc(O)ccc2C2=C1c1ccc(O)cc1C[C@H]2CC (relative stereo)" quantitative_result=0.8033

Now examine the next entry.
Ask: Tell me the measured Normalized activity Low (1.25µM) of CCCn1c(=O)c2[nH]c(-c3ccc(S(=O)(=O)O)cc3)nc2n(CCC)c1=O , please.
Result: 0.885

---

Target: SARS-CoV-2 PLpro (nsp3 1564–1878) (Severe acute respiratory syndrome coronavirus 2, UniProt P0DTD1)
Assay: biochemical
Format: biochemical
Conditions: screen hits, Table 1
Examples of compounds with documented Z score follow.
Answer with a number only.

Completed entries (count: 5):
compound="Cc1cccc2c3c(ccc12)C1=C(C(=O)C3=O)[C@@H](C)CO1 [Dihydrotanshinone I]" outcome_measure="Z score" quantitative_result=−4.52
compound="Cc1ccc(NC2=CC(=O)c3sc(C)nc3C2=O)cc1 [Cdk4 Inhibitor III]" outcome_measure="Z score" quantitative_result=−5.34
compound="O=C1c2ccccc2-c2nc3nnnn3nc21 [PDK1/Akt/Flt Dual Pathway Inhibitor]" outcome_measure="Z score" quantitative_result=−14.53
compound="CC1(C)CCC2=C(O1)c1ccccc1C(=O)C2=O [beta-Lapachone]" outcome_measure="Z score" quantitative_result=−4.66
compound="Cc1cc2nc3c(=O)[nH]c(=O)nc-3n(C)c2cc1C=O [Ro 08-2750]" outcome_measure="Z score" quantitative_result=−5.79

Ask: # Z score lookup, item C[C@H](CCC(=O)O)[C@H]1CC[C@H]2[C@@H]3[C@@H](O)C[C@@H]4C[C@H](O)CC[C@]4(C)[C@H]3CC[C@]12C [Ursodiol]
Result: −7.78

Ask: Need Z score, item O=C(O)c1cccc(O)c1O [Pyrocatechuic acid]
Result: −6.846
